# test-protocol: Pharmacokinetics after 30 min i.v. infusion, phase I trial in hepatocellular carcinoma patients
# Format: in vivo, human
# details: human, plasma, iv; 900 mg/m^2, 30 min i.v. infusion; read-out: T1/2 (half-life at the elimination phase) (converted)
measured-attribute: half-life (h)
One number for each entry, in h.

The reported value for `O=C(/C=C/c1cccc(S(=O)(=O)Nc2ccccc2)c1)NO` in terms of half-life is 4.07

* * *

# test-protocol: Pharmacokinetics after 30 min i.v. infusion, phase I trial in hepatocellular carcinoma patients
# Format: in vivo, human
# details: human, iv; 900 mg/m^2, 30 min i.v. infusion, plasma, mean ± SD
measured-attribute: Cmax

The reported value for O=C(/C=C/c1cccc(S(=O)(=O)Nc2ccccc2)c1)NO [Belinostat] in terms of Cmax is 98.5 µM
